Biological target: Tyrosinase (Agaricus bisporus, UniProt O42713)
Sequence (O42713 whole entry): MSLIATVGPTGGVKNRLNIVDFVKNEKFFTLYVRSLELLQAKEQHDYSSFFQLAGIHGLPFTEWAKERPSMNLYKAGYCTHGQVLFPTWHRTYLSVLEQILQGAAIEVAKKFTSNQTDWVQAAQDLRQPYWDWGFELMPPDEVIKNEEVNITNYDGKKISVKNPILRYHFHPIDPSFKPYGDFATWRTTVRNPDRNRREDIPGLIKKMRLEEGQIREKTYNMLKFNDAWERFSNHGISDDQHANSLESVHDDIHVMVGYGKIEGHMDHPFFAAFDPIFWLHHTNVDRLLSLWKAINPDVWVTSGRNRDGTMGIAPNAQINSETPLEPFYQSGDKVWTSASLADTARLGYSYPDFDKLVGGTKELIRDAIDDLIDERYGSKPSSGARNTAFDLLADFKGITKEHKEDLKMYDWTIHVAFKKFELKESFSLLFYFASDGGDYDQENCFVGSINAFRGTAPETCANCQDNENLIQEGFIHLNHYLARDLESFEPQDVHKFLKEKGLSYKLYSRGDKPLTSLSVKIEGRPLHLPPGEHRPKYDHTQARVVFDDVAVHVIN
Kindly state IC50 for each of the entries shown.
Respond numerically; units are nM and should not be typed.

I would be grateful if you could share the reported IC50 for O=C(CSc1nnc(-c2ccccc2)o1)Nc1ccc(F)cc1 .
396

Now give it for COc1cccc(-c2nnc(SCC(=O)Nc3ccc(F)cc3)o2)c1 too.
27

Now give it for O=C(CSc1nnc(-c2ccccc2)o1)Nc1ccc(Br)cc1 too.
39

Now give it for COc1cccc(-c2nnc(SCC(=O)Nc3ccc(I)cc3)o2)c1 too.
88

Now give it for COc1ccccc1-c1nnc(SCC(=O)Nc2ccccc2)o1 too.
3

Now give it for COc1cccc(-c2nnc(SCC(=O)Nc3ccccc3)o2)c1 too.
19

Now give it for O=C(CSc1nnc(-c2ccccc2)o1)Nc1ccc(I)cc1 too.
85
